Tested on: H3K27 methylation in G401 cell
Assay: ELISA (H3K27 methylation) assay in G401 cells
Assay type: cell-based, human
Settings: Homo sapiens, G-401, read-out: (c) IC50, ELISA Qualified
pIC50: −log10 of the molar value.
Rule: true for pIC50 not less than 7, false for anything less.

Solved entries:
# record smiles, label class
data = [
    ("COc1ccccc1CNc1ccc(-c2ccc(C(=O)N3CCCC3)cc2)c2nncn12", "true"),
    ("COc1cc(CNc2ccc(-c3ccc(CN(C)C)cc3)c3nncn23)ccc1F", "false"),
    ("COc1cccc(F)c1CNc1ccc(-c2cncnc2)c2nncn12", "true"),
    ("COc1cc(F)ccc1CNc1ccc(-c2ccc(CN(C)C)cc2)c2nncn12", "false"),
    ("COc1cccc(F)c1CNc1ccc(-c2ccc(N(C)S(C)(=O)=O)cc2)c2nncn12", "true"),
    ("COc1cc(F)ccc1CNc1ccc(-c2ccc(C(=O)N3CCCC3)cc2)c2nncn12", "false"),
]

We next turn to a different compound, shown below.
Tell me whether pIC50 is at least 7 here: COc1cccc(F)c1CNc1ccc(-c2c(C)nn(C)c2C)c2nncn12
true

---

Biological target: wild type PRC2 (wtPRC2) complex (Homo sapiens, UniProt O75530)
Sequence (Q15910 whole entry partner, one chain of several): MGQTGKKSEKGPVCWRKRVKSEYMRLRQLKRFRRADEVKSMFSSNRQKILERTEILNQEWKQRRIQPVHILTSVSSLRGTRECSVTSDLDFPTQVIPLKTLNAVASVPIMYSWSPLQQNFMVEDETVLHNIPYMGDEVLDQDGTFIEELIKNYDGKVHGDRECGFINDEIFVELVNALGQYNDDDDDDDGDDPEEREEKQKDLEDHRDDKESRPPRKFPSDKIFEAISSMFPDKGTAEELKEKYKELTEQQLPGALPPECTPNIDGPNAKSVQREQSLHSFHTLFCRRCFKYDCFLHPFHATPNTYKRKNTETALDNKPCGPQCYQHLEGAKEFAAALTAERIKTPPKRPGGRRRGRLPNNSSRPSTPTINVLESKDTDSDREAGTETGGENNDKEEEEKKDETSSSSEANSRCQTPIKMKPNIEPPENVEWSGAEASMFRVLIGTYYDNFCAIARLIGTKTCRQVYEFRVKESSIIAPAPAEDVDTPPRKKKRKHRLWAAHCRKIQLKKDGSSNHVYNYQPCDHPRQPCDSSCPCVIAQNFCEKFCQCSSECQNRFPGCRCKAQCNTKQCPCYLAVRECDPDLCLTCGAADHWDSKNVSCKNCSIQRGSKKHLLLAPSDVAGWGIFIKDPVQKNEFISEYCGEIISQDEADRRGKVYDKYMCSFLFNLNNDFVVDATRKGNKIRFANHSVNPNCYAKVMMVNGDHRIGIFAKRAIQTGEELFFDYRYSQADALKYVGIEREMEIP
Sequence (Q15022 whole entry partner, one chain of several): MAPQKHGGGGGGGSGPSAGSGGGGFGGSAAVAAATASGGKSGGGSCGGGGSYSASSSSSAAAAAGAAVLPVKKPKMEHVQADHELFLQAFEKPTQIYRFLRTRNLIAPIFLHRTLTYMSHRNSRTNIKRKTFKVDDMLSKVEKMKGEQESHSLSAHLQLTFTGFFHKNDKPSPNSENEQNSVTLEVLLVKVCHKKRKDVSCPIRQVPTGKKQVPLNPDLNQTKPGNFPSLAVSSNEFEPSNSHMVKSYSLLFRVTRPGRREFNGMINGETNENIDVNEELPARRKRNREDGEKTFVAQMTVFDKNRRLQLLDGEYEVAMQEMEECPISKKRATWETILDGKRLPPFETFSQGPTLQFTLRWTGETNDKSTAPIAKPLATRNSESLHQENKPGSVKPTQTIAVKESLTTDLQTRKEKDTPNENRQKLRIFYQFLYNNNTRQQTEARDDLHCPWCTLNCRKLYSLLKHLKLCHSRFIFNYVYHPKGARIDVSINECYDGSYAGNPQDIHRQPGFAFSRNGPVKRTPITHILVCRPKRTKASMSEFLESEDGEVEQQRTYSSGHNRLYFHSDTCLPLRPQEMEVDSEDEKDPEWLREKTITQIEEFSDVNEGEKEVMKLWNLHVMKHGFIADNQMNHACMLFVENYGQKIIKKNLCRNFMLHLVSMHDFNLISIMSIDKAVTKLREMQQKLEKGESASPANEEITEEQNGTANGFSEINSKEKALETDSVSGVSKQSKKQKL
Sequence (Q09028 whole entry partner, one chain of several): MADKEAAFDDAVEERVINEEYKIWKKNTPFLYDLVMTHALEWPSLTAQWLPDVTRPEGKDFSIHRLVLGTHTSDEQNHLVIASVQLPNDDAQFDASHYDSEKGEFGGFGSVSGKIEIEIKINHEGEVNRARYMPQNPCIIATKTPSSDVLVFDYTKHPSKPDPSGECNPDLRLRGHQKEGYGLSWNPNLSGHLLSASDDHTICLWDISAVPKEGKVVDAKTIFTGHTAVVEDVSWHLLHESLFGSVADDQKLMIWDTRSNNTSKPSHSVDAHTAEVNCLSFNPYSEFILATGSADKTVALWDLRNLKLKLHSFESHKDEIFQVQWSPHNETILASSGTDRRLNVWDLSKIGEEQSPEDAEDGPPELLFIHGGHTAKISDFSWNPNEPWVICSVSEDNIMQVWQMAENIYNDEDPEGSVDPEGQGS
Sequence (Q6ZN18 whole entry partner, one chain of several): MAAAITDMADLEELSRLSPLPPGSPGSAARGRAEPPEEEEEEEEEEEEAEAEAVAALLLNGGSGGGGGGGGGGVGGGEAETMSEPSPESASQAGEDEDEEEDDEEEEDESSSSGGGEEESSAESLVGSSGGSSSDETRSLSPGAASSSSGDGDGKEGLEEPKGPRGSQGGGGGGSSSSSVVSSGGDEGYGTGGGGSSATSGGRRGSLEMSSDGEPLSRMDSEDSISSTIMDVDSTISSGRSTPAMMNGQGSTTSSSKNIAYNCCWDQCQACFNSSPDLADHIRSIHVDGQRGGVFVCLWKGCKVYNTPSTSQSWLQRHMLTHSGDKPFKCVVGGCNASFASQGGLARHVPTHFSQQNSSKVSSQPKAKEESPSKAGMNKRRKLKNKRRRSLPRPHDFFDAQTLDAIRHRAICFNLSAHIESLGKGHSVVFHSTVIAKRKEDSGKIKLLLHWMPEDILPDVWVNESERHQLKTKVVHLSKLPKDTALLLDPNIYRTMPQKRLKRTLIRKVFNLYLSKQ
Assay: EED LC-MS assay (SAH production by PRC2)
Format: biochemical
Conditions: read-out: (b) IC50 EED LC-MS Qualified
reported metric: pIC50
One number for each entry, as −log10 of the molar value.

# compound, reported metric, reported result
records = [
    ("COc1cc(F)cc(F)c1CNc1ccc(-c2cnc(OC(C)C)nc2C)c2nncn12 [Example 349]", "pIC50", 6.54),
    ("COc1cccc(F)c1CNc1ccc(-n2cccn2)c2nncn12 [Example 357]", "pIC50", 6.84),
    ("COc1cccc(F)c1CNc1ccc(-n2cnc(C)c2)c2nncn12 [Example 354]", "pIC50", 7.22),
    ("COc1cccc(F)c1CNc1ccc(-c2nc(C)nn2C)c2nncn12 [Example 355]", "pIC50", 7.52),
    ("COc1cccc(F)c1CNc1ccc(-c2ccc(NC(=O)N(C)C)nc2C)c2nncn12 [Example 368]", "pIC50", 7.15),
    ("COc1ncccc1CNc1ccc(-c2ccc(CN(C)C)cc2)c2nncn12 [Example 374]", "pIC50", 6.84),
    ("COc1cccc(F)c1CNc1ccc(-c2ccc(C(C)(C)C#N)nc2C)c2nncn12 [Example 369]", "pIC50", 6.69),
    ("COc1cccc(F)c1CNc1ccc(-n2cc(C)cn2)c2nncn12 [Example 353]", "pIC50", 6.81),
    ("COc1cccc(F)c1CNc1ccc(-c2cnc(C(C)C)cc2C)c2nncn12 [Example 352]", "pIC50", 6.98),
    ("COc1cccc(F)c1CNc1ccc(-c2c(C)cnn2C)c2nncn12 [Example 370]", "pIC50", 6.97),
]

The following compounds each have a reported value; give each one's pIC50.
1. COc1cc(F)cc(F)c1CNc1ccc(-c2cnc(C)nc2OC)c2nncn12 [Example 373]
2. COc1cccc(F)c1CNc1ccc(-c2cnc(C)n2C)c2nncn12 [Example 366]
3. COc1cccc(F)c1CNc1ccc(-c2cnc(C)nc2OC)c2nncn12 [Example 372]
4. COc1cccc(F)c1CNc1ccc(-c2ccc(C(C)C)nc2C)c2nncn12 [Example 351]
5. COc1cccc(F)c1CNc1ccc(-n2ccnc2C)c2nncn12 [Example 362]

1: 6.31; 2: 7.34; 3: 6.93; 4: 7.64; 5: 7.48

---

Biological target: EED (1-441)-His protein (Homo sapiens)
Construct: 30 nM EED (1-441)-His protein
Test: EED-H3K27Me3 peptide competition binding assay by AlphaScreen
Conditions: read-out: (a) IC50, EED Alphascreen binding Qualified
reported metric: pIC50
Answers are plain numbers, as −log10 of the molar value.

# record smiles, reported metric, reported result
data = [
    ("COc1ccccc1CNc1ccc(-c2ccc(S(=O)(=O)C(C)C)cc2)c2nncn12", "pIC50", 7.80),
]

I'm hoping you can list pIC50 for every molecule here, please.
1. COc1ccccc1CNc1ccc(-c2cc(F)c(CN(C)C)c(F)c2)c2nncn12
2. COc1cc(F)ccc1CNc1ccc(-c2cnc(N3CCN(C(C)C)CC3)c(Cl)c2)c2nncn12
3. COc1ccccc1CNc1ccc(-c2ccc(Cn3ccnc3)cc2)c2nncn12
4. COc1ccccc1CNc1ccc(-c2ccc(C(N)=O)c(Cl)c2)c2nncn12
5. COc1ccc(F)c(CNc2ccc(-c3ccc(S(C)(=O)=O)cc3)c3nncn23)c1
6. COc1cc(F)ccc1CNc1ccc(-c2ccc(S(C)(=O)=O)cc2)c2nncn12
7. COc1cccc(F)c1CNc1ccc(-c2cncc(C)c2)c2nncn12

8.02
6.98
7.38
7.50
6.61
7.25
7.80

---

Target: EED (1-441)-His protein (Homo sapiens, UniProt O75530)
Construct: 30 nM EED (1-441)-His protein
Sequence (O75530 whole entry): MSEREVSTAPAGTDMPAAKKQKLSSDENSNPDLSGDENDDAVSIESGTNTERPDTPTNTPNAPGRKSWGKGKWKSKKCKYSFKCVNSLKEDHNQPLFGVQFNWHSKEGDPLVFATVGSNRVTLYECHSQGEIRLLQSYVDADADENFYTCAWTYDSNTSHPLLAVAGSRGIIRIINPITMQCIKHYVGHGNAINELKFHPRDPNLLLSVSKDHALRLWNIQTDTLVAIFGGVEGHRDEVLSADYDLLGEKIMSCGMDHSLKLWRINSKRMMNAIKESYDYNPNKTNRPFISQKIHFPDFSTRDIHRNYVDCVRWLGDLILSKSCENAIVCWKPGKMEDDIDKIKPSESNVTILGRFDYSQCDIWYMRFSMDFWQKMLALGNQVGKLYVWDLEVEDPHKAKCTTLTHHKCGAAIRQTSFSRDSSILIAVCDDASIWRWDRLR
Test: EED-H3K27Me3 peptide competition binding assay by AlphaScreen
Conditions: read-out: (a) IC50, EED Alphascreen binding Qualified
pIC50: −log10 of the molar value.
Mark Satisfied for reported pIC50 of 7 or greater; mark Not satisfied for anything smaller.

Use the examples below as a reference point.
# record smiles, label class
measured = [
    ("COc1ccccc1CNc1ccc(-c2cccnc2)c2nncn12", "Satisfied"),
    ("COc1ccc(F)cc1CNc1ccc(-c2ccc(S(C)(=O)=O)nc2)c2nncn12", "Not satisfied"),
    ("COc1cccc(F)c1CNc1ccc(-c2cnccc2C)c2nncn12", "Satisfied"),
]

Has COc1cncc(-c2ccc(NCc3c(F)cccc3OC)n3cnnc23)c1 a recorded pIC50 greater than or equal to 7?
Satisfied

# check: pIC50 of COc1cccc(CNc2ccc(-c3ccc(CN(C)C)cc3)c3nncn23)c1 is greater than or equal to 7
Not satisfied

---

Target: EED (1-441)-His protein (Homo sapiens, UniProt O75530)
Construct: 30 nM EED (1-441)-His protein
Assay: EED-H3K27Me3 peptide competition binding assay by AlphaScreen
Conditions: read-out: (a) IC50, EED Alphascreen binding Qualified
reported metric: IC50 (nM)
Give bare numbers, in nM.

# molecule, measurement target, reported metric, reported result
rows = [
    ("COc1ccc(F)c(CNc2ccc(-c3ccncc3)c3nncn23)c1 [Example 99]", "EED (1-441)-His protein (Homo sapiens, UniProt O75530)", "IC50", 255),
    ("COc1cc(F)ccc1CNc1ccc(-c2cnc(N3CCN(C(C)C)CC3)nc2)c2nncn12 [Example 104]", "EED (1-441)-His protein (Homo sapiens, UniProt O75530)", "IC50", 160),
    ("COc1ccccc1CNc1ccc(-c2ccc(CN3CCOCC3)cc2)c2nncn12 [Example 30]", "EED (1-441)-His protein (Homo sapiens, UniProt O75530)", "IC50", 38.2),
    ("CCN1CCC(S(=O)(=O)c2ccc(-c3ccc(NCc4ccccc4OC)n4cnnc34)cn2)CC1 [Example 143]", "EED (1-441)-His protein (Homo sapiens, UniProt O75530)", "IC50", 31.1),
    ("COc1cccc(F)c1CNc1ccc(-c2nc(C)no2)c2nncn12 [Example 11]", "EED (1-441)-His protein (Homo sapiens, UniProt O75530)", "IC50", 30.7),
    ("COc1cccc(F)c1CNc1ccc(-c2cnc(C)nc2C)c2nncn12 [Example 3]", "EED (1-441)-His protein (Homo sapiens, UniProt O75530)", "IC50", 17.5),
    ("COc1ccccc1CNc1ccc(-c2ccc([S+](C)[O-])cc2)c2nncn12 (stereo not drawn) [Example 102]", "EED (1-441)-His protein (Homo sapiens, UniProt O75530)", "IC50", 61.9),
    ("COc1cccc(F)c1CNc1ccc(-c2ccc(OCCS(C)(=O)=O)cc2)c2nncn12 [Example 169]", "EED (1-441)-His protein (Homo sapiens, UniProt O75530)", "IC50", 84.5),
]

Note: attention shifts to another entry.
Recorded IC50 (molecule COc1cc(CNc2ccc(-c3ccc(CN(C)C)cc3)c3nncn23)c(F)cc1F [Example 98] ): 359

---

Biological target: wild type PRC2 (wtPRC2) complex (Homo sapiens)
Assay: EED LC-MS assay (SAH production by PRC2)
Type: biochemical
Conditions: PRC2 LC-MS assay; read-out: (b) IC50 EED LC-MS Qualified
reported metric: IC50 (nM)
One number for each entry, in nM.

The cases that follow already have their IC50 on record.
# record smiles, IC50 / nM
records = [
    ("COc1cccc(F)c1CNc1ccc(-c2c(C)nn(C(C)C)c2C)c2nncn12", 27.7),
    ("COC(=O)N1CCC(n2cc(-c3ccc(NCc4c(F)cccc4OC)n4cnnc34)cn2)CC1", 106),
    ("COc1cccc(F)c1CNc1ccc(-c2ccc(C(=O)N(C)C)cc2)c2nncn12", 48),
]

State the recorded IC50 for every item in the following list.
1. COc1cccc(F)c1CNc1ccc(-c2cn(C)nc2CO)c2nncn12
2. COc1cccc(F)c1CNc1ccc(-c2c(C)n[nH]c2C)c2nncn12
3. COc1cccc(F)c1CNc1ccc(-c2ccc(N3CCOCC3)nc2)c2nncn12
4. COc1cccc(F)c1CNc1ccc(-c2ccc(S(C)(=O)=O)cc2C)c2nncn12
5. COc1cccc(F)c1CNc1ccc(-c2cc(C(F)(F)F)ncc2C)c2nncn12
6. COc1cc(F)cc(F)c1CNc1ccc(-c2cnc(C)cc2C)c2nncn12
7. COc1cccc(F)c1CNc1ccc(-c2cncc(OCCCS(C)(=O)=O)c2)c2nncn12
8. CCn1nccc1-c1ccc(NCc2c(F)cccc2OC)n2cnnc12

1: 96.2; 2: 172; 3: 162; 4: 55.9; 5: 124; 6: 1360; 7: 235; 8: 47.8

Give measured IC50 for every item shown.
1. COc1cccc(F)c1CNc1ccc(-c2ccc(NC(C)=O)nc2)c2nncn12
2. COc1cccc(F)c1CNc1ccc(-c2c[nH]nc2C)c2nncn12
3. COc1cccc(F)c1CNc1ccc(-c2ccc(C(=O)N(C)C)cc2C)c2nncn12
4. COc1cccc(F)c1CNc1ccc(-c2cc(F)c(N)c(F)c2)c2nncn12

1. 164
2. 71.1
3. 29.1
4. 225

Please report IC50 for every entry that follows.
1. COc1cc(F)cc(F)c1CNc1ccc(-c2cccnc2C)c2nncn12
2. COc1cccc(F)c1CNc1ccc(-c2ccc(C)nc2C(F)F)c2nncn12
3. COc1cccc(F)c1CNc1ccc(-c2cnc(C3CC3)cc2C)c2nncn12

39.6
21.5
106
